Provenance of the data: PubChem BioAssay (NCATS)

Target: Calcium and integrin-binding protein 1 (Homo sapiens) (UniProt Q99828)
Sequence (Q99828 whole entry, looked up): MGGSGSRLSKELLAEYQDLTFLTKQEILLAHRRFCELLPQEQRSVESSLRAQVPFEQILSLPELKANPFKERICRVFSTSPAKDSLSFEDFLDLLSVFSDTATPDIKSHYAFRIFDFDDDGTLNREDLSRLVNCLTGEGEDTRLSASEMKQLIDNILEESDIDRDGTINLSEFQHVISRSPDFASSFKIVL
Experiment: Primary qHTS for Identification of Calcium Integrin Binding Protein 1 (CIB1) Competitor (AID 1508620);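 also: GST tagged CIB1 binding a fluorescein labelled alphaIIb integrin peptide tracer; top concentration of the series differs between compounds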
Settings: CIB1-GST / FITC-alphaIIb peptide fluorescence polarization; series mostly up to 114 µM
From the text: Assay Provider: Ulhas P. Naik, PhD Sidney Kimmel Medical College Thomas Jefferson University, Philadelphia, PA Primary function of platelets is to maintain hemostasis. At the site of vascular injury, platelets adhere to adhesive proteins such as collagen and von Willebrand factor. […] PROTOCOL TABLES SEQUENCE No. (1, 2, 3, etc.); […] […] 7; ViewLux Fluorescent Polization Read: excitation = 480(20) / emission = 540(25) S and P; FITC Dichroic mirror.
Results filed as inconclusive are left out. The source made the active and inactive calls. Calls follow the shape of the dose curve; as a rule, active = well fitted inhibition curve with a large enough effect; inconclusive = small, poorly fitted or top-dose-only effect; inactive = flat fitted curve, though single readings scatter.
Parameter measured: activity change, negative = inhibition

// worked examples, activity change, negative = inhibition included
Answer with the recorded activity change, negative = inhibition for the compound listed here: C[C@@H]1O[C@@H](OC2CCC3(C=O)C(CCC4C3CCC3(C)C(C5=CC(=O)OC5)C(O)CC43O)C2)[C@H](O)[C@H](O)[C@H]1O[C@@H]1O[C@H](CO)[C@@H](O)[C@H](O)[C@H]1O (some centres not stated) inactive

Consider the compound C=C1[C@@H](C)C2[C@H](Cc3ccccc3)NC(=O)[C@@]23C(/C=C/C[C@H](C)C[C@@](C)(O)/C=C/[C@@H]3OC(C)=O)[C@@H]1O (some centres not stated) and give its recorded activity change, negative = inhibition. inactive

Read off the recorded activity change, negative = inhibition for C[C@]12CC[C@H](O)CC1=CC[C@@H]1C2CC[C@]2(C)[C@@H](C3=CC(=O)OC3)CC[C@]12O (some centres not stated) inactive

For the compound C[C@@H]1CCC/C=C/[C@H]2C[C@@H](O)C[C@@H]2[C@@H](O)/C=C/C(=O)O1 , give its measured activity change, negative = inhibition value. inactive

Dear colleague, please send me the reported activity change, negative = inhibition for O=C1CN=C(c2ccccc2Cl)c2cc(Br)ccc2N1 when you can. inactive

New cases:
Please list activity change, negative = inhibition recorded for the compound CC1=C[C@H]2O[C@@H]3C[C@H]4OC(=O)/C=C/C=C/C(=O)OCC/C(C)=C/C(=O)OC[C@@]2(CC1)[C@]4(C)[C@]31CO1 inactive

Given C[C@]12CC[C@H](O)C[C@H]1CC[C@@H]1[C@@H]2[C@H](O)C[C@]2(C)[C@@H](c3ccc(=O)oc3)CC[C@]12O , respond with its activity change, negative = inhibition. inactive
